Origin of values: PubChem BioAssay (NCI)

system: HCT-116 colon; assay: NCI-60 one-dose screen, 48 h (100 = growth as untreated, 0 = no growth, -100 = all killed); settings: 10 µM unless noted
This is part of a sample that, as a whole, favours compounds with a hit. Of some 83,000 tested, about 20% had one in any assay.
Listed here: items and their measured growth.
Give the value, in units of %, as a plain number.

Please review the entries below; each comes with its answer.
1. COc1cc(/C=C/C(=O)c2ccc(C)cc2)ccc1Oc1nc(Nc2ccc(F)cc2)nc(N(C)C)n1    -80.3
2. Cc1sc(C(NC(=O)OCCn2c([N+](=O)[O-])cnc2C)C(F)(F)Cl)nc1-c1ccc(OC(F)(F)F)cc1 (centres undefined)    -80.3
3. O=C(COc1ccc(NC(=O)Nc2ccccc2)cc1)N=Nc1c(O)[nH]c2ccc([N+](=O)[O-])cc12    -55.9
4. CC(=O)OCC1OC(OC2C(COC(C)=O)OC(n3cc(COc4ccc5ccc(=O)oc5c4)nn3)C(OC(C)=O)C2OC(C)=O)C(OC(C)=O)C(OC(C)=O)C1OC(C)=O (centres undefined)    106
5. Cc1sc2c(c1C)C(c1ccc(Cl)cc1)=N[C@@H](CC(=O)NCCCCCNC(=O)COc1ccc(C3CCC(=O)NC3=O)cc1)c1nnc(C)n1-2 (some centres undefined)    20

-- ask Entry CN(C)CCOc1ccc(C(=O)C2[C@H](c3ccc(Cl)cc3)[C@@H](c3ccccc3)NC23C(=O)Nc2ccc(Br)cc23)cc1 (some centres undefined) has what growth?
-- reply -96.6

-- ask Entry "COc1cc2c3c(n(CCCN4CCC[C@@H]4CO)c(=O)c2cc1OC)-c1cc2c(cc1C3=O)OCO2" has what growth?
-- reply -59.1

###

tested on: SNB-19 CNS; experiment: NCI-60 one-dose screen, 48 h (100 = growth as untreated, 0 = no growth, -100 = all killed); conditions: 10 µM unless noted
This is part of a sample that, as a whole, favours compounds with a hit. Of some 83,000 tested, about 20% had one in any assay.
Please note: Satisfied applies when growth is 40% or greater, and Not satisfied applies otherwise.

1) CC(C)(C)OC(=O)/C=C/c1cccc2c1C(=O)NC(C)(c1cc3cc(Cl)ccc3oc1=O)N2 (stereo not given)    Satisfied
2) N/C(=N\c1nc2ccccc2s1)NC(=O)Nc1ccc(Cl)cc1Cl    Not satisfied
3) COc1cc(/C=C/C(=O)c2ccccc2)ccc1Oc1nc(Nc2ccc(F)cc2)nc(N(C)C)n1    Not satisfied
4) C=C1CCC2C3(C)COC(c4ccc(F)cc4)OC3CCC2(C)C1C/C=C1/C(=O)OCC1O (stereo not given)    Not satisfied
5) Cc1c(C(=O)NNC(=O)c2ccc(Cl)cc2)nnn1-c1ccc(Br)cc1    Satisfied

-- ask hey, is growth for this one >= 40%? "CC(=O)Nc1cccc(Nc2nccc(N[C@@H](C)c3ccccc3)n2)c1"
-- reply Not satisfied

-- ask hey, is growth for this one >= 40%? "N/C(=N\c1nc2ccccc2s1)NC(=O)Nc1c(Cl)cccc1Cl"
-- reply Satisfied

-- ask hey, is growth for this one >= 40%? "NC(=S)Nc1cccc(NC(N)=S)c1"
-- reply Satisfied

-- ask hey, is growth for this one >= 40%? "CCOC(=O)c1ccc(Nc2nc(NN)nc(-c3ccc(F)cc3)c2C#N)cc1"
-- reply Satisfied

-- ask hey, is growth for this one >= 40%? "CCOc1ccc(-c2c(C#N)c(-c3ccc(Cl)cc3)nc3n[nH]c(-c4ccc(Cl)cc4)c23)cc1OC"
-- reply Satisfied
